Origin of measurements: the supplement of paper PMC4380931

Listed next: entries and their corresponding apoptotic fraction of cells.
System: COLO858
Experiment: apoptotic fraction of cells (caspase-3 NucView488 positive); higher = more apoptosis
Conditions: 48 h; 1 µM
Measurement label: apoptotic fraction of cells

* CCCS(=O)(=O)Nc1ccc(F)c(C(=O)c2c[nH]c3ncc(-c4ccc(Cl)cc4)cc23)c1F | 0.194
* Cc1ccc(NC(=O)c2cccc(C(C)(C)C#N)c2)cc1Nc1ccc2ncn(C)c(=O)c2c1 | 0.296
* CCCS(=O)(=O)Nc1ccc(F)c(C(=O)c2c[nH]c3ncc(Cl)cc23)c1F | 0.184
* CN(C)CCOc1ccc(-c2nc(-c3ccncc3)c(-c3ccc4c(c3)CC/C4=N\O)[nH]2)cc1 | 0.237
* Cn1cnc2c(F)c(Nc3ccc(Br)cc3Cl)c(C(=O)NOCCO)cc21 | 0.232

====

System: WM1552C
Assay: relative viability (cell count relative to DMSO-treated control) (fraction of DMSO control); higher = more viable cells / less drug effect
Conditions: 24 h; 3.16 µM
Listed next: entries and their corresponding relative viability.
Measurement label: relative viability

- Cc1ccc(NC(=O)c2cccc(C(C)(C)C#N)c2)cc1Nc1ccc2ncn(C)c(=O)c2c1 [AZ628]: 0.928
- CCCS(=O)(=O)Nc1ccc(F)c(C(=O)c2c[nH]c3ncc(-c4ccc(Cl)cc4)cc23)c1F [Vemurafenib]: 0.875
- CCCS(=O)(=O)Nc1ccc(F)c(C(=O)c2c[nH]c3ncc(Cl)cc23)c1F [PLX4720]: 0.994
- CN(C)CCOc1ccc(-c2nc(-c3ccncc3)c(-c3ccc4c(c3)CC/C4=N\O)[nH]2)cc1: 1.05
- Cn1cnc2c(F)c(Nc3ccc(Br)cc3Cl)c(C(=O)NOCCO)cc21 [Selumetinib]: 0.947

====

Listed next: entries and their corresponding relative viability.
System: WM1552C
Test: relative viability (cell count relative to DMSO-treated control) (fraction of DMSO control); higher = more viable cells / less drug effect
Conditions: 24 h; 0.316 µM
Measurement label: relative viability

• Cc1ccc(NC(=O)c2cccc(C(C)(C)C#N)c2)cc1Nc1ccc2ncn(C)c(=O)c2c1 = 0.974
• CN(C)CCOc1ccc(-c2nc(-c3ccncc3)c(-c3ccc4c(c3)CC/C4=N\O)[nH]2)cc1 = 1.03
• Cn1cnc2c(F)c(Nc3ccc(Br)cc3Cl)c(C(=O)NOCCO)cc21 = 1.03
• CCCS(=O)(=O)Nc1ccc(F)c(C(=O)c2c[nH]c3ncc(Cl)cc23)c1F = 1.02
• CCCS(=O)(=O)Nc1ccc(F)c(C(=O)c2c[nH]c3ncc(-c4ccc(Cl)cc4)cc23)c1F = 1.03

====

Listed next: entries and their corresponding relative viability.
Test system: COLO858
Test: relative viability (cell count relative to DMSO-treated control) (fraction of DMSO control); higher = more viable cells / less drug effect
Details: 48 h; 0.01 µM
Measurement label: relative viability

- CCCS(=O)(=O)Nc1ccc(F)c(C(=O)c2c[nH]c3ncc(-c4ccc(Cl)cc4)cc23)c1F [Vemurafenib]: 1.02
- Cc1ccc(NC(=O)c2cccc(C(C)(C)C#N)c2)cc1Nc1ccc2ncn(C)c(=O)c2c1 [AZ628]: 1.08
- Cn1cnc2c(F)c(Nc3ccc(Br)cc3Cl)c(C(=O)NOCCO)cc21 [Selumetinib]: 1.05
- CN(C)CCOc1ccc(-c2nc(-c3ccncc3)c(-c3ccc4c(c3)CC/C4=N\O)[nH]2)cc1: 1.03
- CCCS(=O)(=O)Nc1ccc(F)c(C(=O)c2c[nH]c3ncc(Cl)cc23)c1F [PLX4720]: 1.07

====

Test system: SKMEL28
Assay: apoptotic fraction of cells (caspase-3 NucView488 positive); higher = more apoptosis
Details: 72 h; 0.0316 µM
Outcome: Yes for apoptotic fraction of cells of at least 0.03; No for anything lower.

- CN(C)CCOc1ccc(-c2nc(-c3ccncc3)c(-c3ccc4c(c3)CC/C4=N\O)[nH]2)cc1: No
- Cc1ccc(NC(=O)c2cccc(C(C)(C)C#N)c2)cc1Nc1ccc2ncn(C)c(=O)c2c1 [AZ628]: No
- CCCS(=O)(=O)Nc1ccc(F)c(C(=O)c2c[nH]c3ncc(Cl)cc23)c1F [PLX4720]: Yes

====

System: RVH421
Test: apoptotic fraction of cells (caspase-3 NucView488 positive); higher = more apoptosis
Details: 24 h; 1 µM
Measurement label: apoptotic fraction of cells

* Cn1cnc2c(F)c(Nc3ccc(Br)cc3Cl)c(C(=O)NOCCO)cc21 | 0.0523
* CN(C)CCOc1ccc(-c2nc(-c3ccncc3)c(-c3ccc4c(c3)CC/C4=N\O)[nH]2)cc1 | 0.062
* Cc1ccc(NC(=O)c2cccc(C(C)(C)C#N)c2)cc1Nc1ccc2ncn(C)c(=O)c2c1 | 0.0518
* CCCS(=O)(=O)Nc1ccc(F)c(C(=O)c2c[nH]c3ncc(Cl)cc23)c1F | 0.0478
* CCCS(=O)(=O)Nc1ccc(F)c(C(=O)c2c[nH]c3ncc(-c4ccc(Cl)cc4)cc23)c1F | 0.0547

====

Test system: WM1552C
Test: apoptotic fraction of cells (caspase-3 NucView488 positive); higher = more apoptosis
Conditions: 48 h; 0.316 µM
Measurement label: apoptotic fraction of cells

• Cc1ccc(NC(=O)c2cccc(C(C)(C)C#N)c2)cc1Nc1ccc2ncn(C)c(=O)c2c1 = 0.0464
• CN(C)CCOc1ccc(-c2nc(-c3ccncc3)c(-c3ccc4c(c3)CC/C4=N\O)[nH]2)cc1 = 0.0576
• Cn1cnc2c(F)c(Nc3ccc(Br)cc3Cl)c(C(=O)NOCCO)cc21 = 0.0753
• CCCS(=O)(=O)Nc1ccc(F)c(C(=O)c2c[nH]c3ncc(Cl)cc23)c1F = 0.044
• CCCS(=O)(=O)Nc1ccc(F)c(C(=O)c2c[nH]c3ncc(-c4ccc(Cl)cc4)cc23)c1F = 0.063

====

Test system: K2
Assay: apoptotic fraction of cells (caspase-3 NucView488 positive); higher = more apoptosis
Conditions: 24 h; 0.0316 µM
Measurement label: apoptotic fraction of cells

- Cn1cnc2c(F)c(Nc3ccc(Br)cc3Cl)c(C(=O)NOCCO)cc21: 0.00454
- CN(C)CCOc1ccc(-c2nc(-c3ccncc3)c(-c3ccc4c(c3)CC/C4=N\O)[nH]2)cc1: 0.00221
- CCCS(=O)(=O)Nc1ccc(F)c(C(=O)c2c[nH]c3ncc(Cl)cc23)c1F: 0.00353
- Cc1ccc(NC(=O)c2cccc(C(C)(C)C#N)c2)cc1Nc1ccc2ncn(C)c(=O)c2c1: 0.00276
- CCCS(=O)(=O)Nc1ccc(F)c(C(=O)c2c[nH]c3ncc(-c4ccc(Cl)cc4)cc23)c1F: 0.00265

====

Test system: LOXIMVI
Experiment: apoptotic fraction of cells (caspase-3 NucView488 positive); higher = more apoptosis
Settings: 24 h; 3.16 µM
Listed next: entries and their corresponding apoptotic fraction of cells.
Measurement label: apoptotic fraction of cells

* CCCS(=O)(=O)Nc1ccc(F)c(C(=O)c2c[nH]c3ncc(Cl)cc23)c1F [PLX4720] | 0.0445
* Cc1ccc(NC(=O)c2cccc(C(C)(C)C#N)c2)cc1Nc1ccc2ncn(C)c(=O)c2c1 [AZ628] | 0.0554
* Cn1cnc2c(F)c(Nc3ccc(Br)cc3Cl)c(C(=O)NOCCO)cc21 [Selumetinib] | 0.0428
* CN(C)CCOc1ccc(-c2nc(-c3ccncc3)c(-c3ccc4c(c3)CC/C4=N\O)[nH]2)cc1 | 0.0461
* CCCS(=O)(=O)Nc1ccc(F)c(C(=O)c2c[nH]c3ncc(-c4ccc(Cl)cc4)cc23)c1F [Vemurafenib] | 0.0557

====

Test system: WM1552C
Experiment: relative viability (cell count relative to DMSO-treated control) (fraction of DMSO control); higher = more viable cells / less drug effect
Conditions: 24 h; 0.1 µM
Listed next: entries and their corresponding relative viability.
Measurement label: relative viability

• CCCS(=O)(=O)Nc1ccc(F)c(C(=O)c2c[nH]c3ncc(-c4ccc(Cl)cc4)cc23)c1F = 1.06
• CN(C)CCOc1ccc(-c2nc(-c3ccncc3)c(-c3ccc4c(c3)CC/C4=N\O)[nH]2)cc1 = 1.08
• Cn1cnc2c(F)c(Nc3ccc(Br)cc3Cl)c(C(=O)NOCCO)cc21 = 1.07
• CCCS(=O)(=O)Nc1ccc(F)c(C(=O)c2c[nH]c3ncc(Cl)cc23)c1F = 1.08
• Cc1ccc(NC(=O)c2cccc(C(C)(C)C#N)c2)cc1Nc1ccc2ncn(C)c(=O)c2c1 = 1.01

====

Tested on: WM1552C
Test: relative viability (cell count relative to DMSO-treated control) (fraction of DMSO control); higher = more viable cells / less drug effect
Details: 24 h; 0.0316 µM
Measurement label: relative viability

• CCCS(=O)(=O)Nc1ccc(F)c(C(=O)c2c[nH]c3ncc(Cl)cc23)c1F = 1.03
• Cn1cnc2c(F)c(Nc3ccc(Br)cc3Cl)c(C(=O)NOCCO)cc21 = 1.08
• CN(C)CCOc1ccc(-c2nc(-c3ccncc3)c(-c3ccc4c(c3)CC/C4=N\O)[nH]2)cc1 = 0.986
• CCCS(=O)(=O)Nc1ccc(F)c(C(=O)c2c[nH]c3ncc(-c4ccc(Cl)cc4)cc23)c1F = 0.912
• Cc1ccc(NC(=O)c2cccc(C(C)(C)C#N)c2)cc1Nc1ccc2ncn(C)c(=O)c2c1 = 0.99
